Target: beta 2 adrenergic receptor (B2AR) 97–103 (Homo sapiens, UniProt P07550)
Construct: B2AR 97–103
Assay: UV spectroscopy binding to receptor peptide B2AR 97–103
Settings: read-out: Kd @ 200 nm, B2AR 97–103
Listed here: items and their measured Kd.
testReadout: Kd (µM)

> print(dat)
                                 itemsmiles                             subjectoftest  testreadout  unitofmeasurement  measurementqualifier  quantitativereadout
1                             NCCc1c[nH]cn1  beta 2 adrenergic receptor (B2AR) 97–103 (Homo sapiens, UniProt P07550)           Kd                 µM                     >                 1000
2  CSCC[C@H](NC(=O)[C@H](Cc1ccccc1)NC(=O)CNC(=O)CNC(=O)[C@@H](N)Cc1ccc(O)cc1)C(=O)O  beta 2 adrenergic receptor (B2AR) 97–103 (Homo sapiens, UniProt P07550)           Kd                 µM                     =                  130
3                    NCCc1c[nH]c2ccc(O)cc12  beta 2 adrenergic receptor (B2AR) 97–103 (Homo sapiens, UniProt P07550)           Kd                 µM                     =                  120

----------
Experiment: UV spectroscopy binding between compounds: binding to morphine sulfate
Conditions: read-out: Kd @ 200 nm, binding to Morph; UV spectroscopy, pH 7.4 sodium phosphate buffer; single binding constant
Counter-ions that a name gives are not always drawn.
testReadout: log10 of Kd (log10 of the value in µM)

> print(dat)
                                   molecule  testreadout  quantitativereadout
1                    NCCc1c[nH]c2ccc(O)cc12  log10 of Kd                -0.15
2  NC[C@H](O)c1ccc(O)c(O)c1 [Norepinephrine HCl]  log10 of Kd                -0.40
3                    CNC[C@H](O)c1cccc(O)c1  log10 of Kd                -0.89
4                         NCCc1ccc(O)c(O)c1  log10 of Kd                -0.22
5                            NCCc1ccc(O)cc1  log10 of Kd                 1.70
6  CC(C)NCC(O)c1ccc(O)c(O)c1 (stereo not drawn)  log10 of Kd                -1.00
7             COc1ccc2[nH]cc(CCNC(C)=O)c2c1  log10 of Kd                 2.48
8  CC(C)(C)NCC(O)c1ccc(O)c(CO)c1 (stereo not drawn)  log10 of Kd                -0.52
9      NCC(O)c1ccc(O)cc1 (stereo not drawn)  log10 of Kd                 0.51

----------
Biological target: beta 2 adrenergic receptor (B2AR) 97–103 (Homo sapiens)
Construct: B2AR 97–103
Assay: UV spectroscopy binding to receptor peptide B2AR 97–103
pKd: −log10 of the molar value.
testReadout: pKd

> print(dat)
             itemsmiles  testreadout  result
1  CC(=O)OCC[N+](C)(C)C          pKd  < 3.00

----------
Listed here: items and their measured Kd.
Assay: UV spectroscopy binding between compounds: binding to propranolol
Settings: read-out: Kd @ 200 nm, binding to Prop; UV spectroscopy, pH 7.4 sodium phosphate buffer; single binding constant
Counter-ions that a name gives are not always drawn.
testReadout: Kd (µM)

> print(dat)
                                    compound  unitofmeasurement  measurementqualifier  quantitativereadout
 1               N[C@@H](Cc1ccc(O)cc1)C(=O)O                 µM                     =                   20
 2                         NCCc1ccc(O)c(O)c1                 µM                     =                  100
 3  CC(C)NCC(O)c1ccc(O)c(O)c1 (centres unmarked)                 µM                     =                   11
 4  NC[C@H](O)c1ccc(O)c(O)c1 [Norepinephrine HCl]                 µM                     >                 1000
 5                    NCCc1c[nH]c2ccc(O)cc12                 µM                     =                  100
 6                            NCCc1ccc(O)cc1                 µM                     =                   80
 7                      CC(=O)OCC[N+](C)(C)C                 µM                     >                 1000
 8  N[C@@H](Cc1ccc(O)c(O)c1)C(=O)O [L-DOPA, L-3,4-dihydroxyphenylalanine]                 µM                     =                   15
 9                             NCCc1c[nH]cn1                 µM                     =                  110
10             COc1ccc2[nH]cc(CCNC(C)=O)c2c1                 µM                     =                   90
11                    CNC[C@H](O)c1cccc(O)c1                 µM                     =                   20

----------
Target: histamine type 1 receptor (H1HR) 77–87 (Homo sapiens, UniProt P35367)
testReadout: Kd (µM)

> print(dat)
               itemsmiles  quantitativereadout
1  NCCc1c[nH]c2ccc(O)cc12                   75

----------
Listed here: items and their measured Kd.
Molecular target: UniProtKB P01210
Experiment: UV spectroscopy binding between compounds: binding to methionine-enkephalin
Design: M-Enk = methionine-enkephalin; purchased Sigma-Aldrich
Conditions: Kd @ 200 nm, binding to M-Enk, high affinity binding, double curve, first value
Where a name gives a salt, the structure may show the parent alone.
testReadout: Kd (µM)

> print(dat)
                                   molecule  testreadout  quantitativereadout
1  CNC[C@H](O)c1ccc(O)c(O)c1 [Epinephrine HCl]           Kd                  5.8
2  NC[C@H](O)c1ccc(O)c(O)c1 [Norepinephrine HCl]           Kd                  5.3

----------
Target: methionine-enkephalin (Homo sapiens, UniProt P01210)
Experiment: UV spectroscopy binding between compounds: binding to methionine-enkephalin
Set-up: M-Enk = methionine-enkephalin; purchased Sigma-Aldrich
Settings: read-out: Kd @ 200 nm, binding to M-Enk, low affinity binding; double curve, second value
pKd: −log10 of the molar value. Structures can show the parent of a compound that is named as a salt.
Listed here: items and their measured pKd.
testReadout: pKd

> print(dat)
                                   compound  testreadout  quantitativereadout
1  NC[C@H](O)c1ccc(O)c(O)c1 [Norepinephrine HCl]          pKd                 4.46
2  CNC[C@H](O)c1ccc(O)c(O)c1 [Epinephrine HCl]          pKd                 4.40
3  CC(C)NCC(O)COc1cccc2ccccc12 (stereo not drawn)          pKd                 4.46

----------
Experiment: UV spectroscopy binding between compounds: binding to propranolol
Conditions: read-out: Kd @ 200 nm, binding to Prop, low affinity binding; double curve, second value
Counter-ions that a name gives are not always drawn.
testReadout: Kd (µM)

> print(dat)
                                   compound  quantitativereadout
1  CC(C)(C)NCC(O)c1ccc(O)c(CO)c1 (centres unmarked) [Salbutamol]                  130
2  CNC[C@H](O)c1ccc(O)c(O)c1 [Epinephrine HCl]                 1000

Source listed as paper PMC6747318.
